- PROTOCOL NOTES: small-molecule binders of probe aInhba, primary screen, biochemical, small-molecule microarray, 635/667 nm fluorescence (AID 1148);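 note: score merges 667nm spot fluorescence with signal-to-noise for antibody binding to printed compounds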
- CONDITION DETAILS: higher = more signal

{"columns": ["COMPOUND", "composite z-score"],
 "data": [
  ["CC(=O)NCCCC[C@@H]1NC(=O)[C@H]2C[C@@H](C(=O)NCCCC[N+](C)(C)C)[C@@H](c3cccc(OCCO)c3)N2C1=O", 0.0031],
  ["COCCOC(=O)N1C(=O)[C@@]2(c3cc(C#CC4=CCCCC4)ccc31)[C@H](c1ccccc1OCCO)N1[C@H](c3ccccc3)[C@H](c3ccccc3)OC(=O)[C@H]1[C@@H]2C(=O)Nc1nc2ccccc2s1", 0.0497],
  ["COc1ccc(-c2nc(-c3ccccc3)c3c(c2C)CO[Si]3(C(C)C)C(C)C)cn1", -0.0494],
  ["C=C(C)[C@@H]1CC=C(C(O)C2C=CC3C(=O)N(c4ccccc4)C(=O)C3N2Nc2ccccc2F)CC1 (some centres undefined)", 0.153],
  ["C[N+](C)(C)CCCCCCNC(=O)[C@H]1C[C@H]2C(=O)NCC(=O)N2[C@H]1c1ccc(O)cc1", -0.354],
  ["CCCNC(=O)[C@@H]1c2ccccc2C(=O)N(C(C)C)[C@H]1c1ccc(CO)cc1", 0.0658],
  ["COCCOC(=O)N1C(=O)[C@@]2(c3cc(C#CCC(C(=O)OC)C(=O)OC)ccc31)[C@H](C(=O)N1CCc3cc(OC)c(OC)cc3C1)[C@H]1C(=O)O[C@H](c3ccccc3)[C@H](c3ccccc3)N1[C@@H]2c1ccc(OCCO)cc1", 0.19],
  ["CC1=C[C@@]2(CO)C(=O)[C@]3(CO3)[C@@H]1[C@H]1[C@]2(C)C=C(CO)C(=O)[C@]12CO2", -0.103],
  ["O=C1OCC=C[C@H]2OC34C=CCN(Cn5nnc6ccccc65)C(=O)[C@H]3N(CCCO)C(=O)[C@@H]4[C@@H]12 (some centres undefined)", -0.224],
  ["C=CCC(OC(C)=O)[C@@H]1[C@@H](N(Cc2cc3ccccc3o2)C(=O)c2ccc(C)cc2)c2cc(OCCCO)ccc2N1C(=O)Cc1ccc(OC)cc1 (some centres undefined)", -0.0044],
  ["COc1ccc(-c2cc3c(c(CCc4ccccc4)n2)[Si](C(C)C)(C(C)C)OC3)cn1", -0.0986],
  ["CC(C)C(=C=CC[C@H](O)c1ccc(OCCO)cc1)C[C@H](O)c1ccccn1", -0.0986],
  ["CC(C)N1CC=CC23O[C@@H]4C=CCOC(=O)[C@@H]4[C@H]2C(=O)N(CCCO)[C@@H]3C1=O (some centres undefined)", -0.182],
  ["CC(C)(C)N1CC=CC23O[C@@H]4C=CCOC(=O)[C@@H]4[C@H]2C(=O)N(CCCCCCO)[C@@H]3C1=O (some centres undefined)", -0.209],
  ["C=C(C)c1cc2c(c(CCCCCC)n1)[Si](C(C)C)(C(C)C)OC2", -0.159],
  ["COC(=O)[C@@]1(Cc2ccccc2)[C@H]2c3cc(C(=O)N(C)C)n(CCN4CNCC4=O)c3C[C@H]2CN1C(=O)c1ccccc1", 1.28],
  ["COC(=O)[C@@]1(Cc2ccc(F)cc2)[C@H]2c3cc(C(=O)N4CCCC4)n(CCN4CNCC4=O)c3C[C@H]2CN1C(=O)c1ccccc1", 0.179],
  ["CCC(CC)C(O)C1C=CC2C(=O)N(c3ccccc3)C(=O)C2N1Nc1ccc(C(C)C)cc1 (centres undefined)", -0.0021],
  ["O=C1N(Cc2ccccc2)Cc2ccccc2[C@@H]2OC(c3ccc(OCCCO)cc3)=N[C@]12CCS(=O)(=O)c1ccccc1", 0.0742],
  ["C=C(/C(=C/C[C@H](OC(C)=O)c1cccc(OCCO)c1)c1cnc2ccccc2c1)C(C)C", 0.124],
  ["COCCCNC(=O)[C@@]1(Sc2ccc(C)cc2)CC(=O)N(C2CCCCC2)[C@@H]1c1ccc(CO)cc1", -0.154],
  ["CC(C)[Si](C#CCCCC#N)(O[C@H](c1ccccc1)c1cn([C@H](CO)Cc2ccccc2)nn1)C(C)C", -0.108],
  ["COCCCNC(=O)[C@]1(CCS(=O)(=O)c2ccccc2)N=C(c2ccc(OCCCO)cc2)O[C@@H]1c1ccccc1N=[N+]=[N-]", -0.0907],
  ["COC(=O)[C@@]1(Cc2ccc(OC)cc2)[C@H]2c3cc(C(=O)N(C)C)n(CCO)c3C[C@H]2CN1C(=O)c1ccccc1", 0.488],
  ["O=C1O[C@H](c2ccccc2)[C@H](c2ccccc2)N2[C@H]1[C@@H](C(=O)N1CCN(c3ncccn3)CC1)[C@]1(C(=O)Nc3ccc(C#CC4(O)CCCCCC4)cc31)[C@H]2c1ccc(OCCO)cc1", 1.05],
  ["CCOC(=O)C[C@H]1[C@H](OC(=O)c2cc3ccccc3oc2=O)[C@@H](NC(=O)c2ccc(-c3ccccc3)cc2)c2cc(OCCCO)ccc2N1C(=O)c1ccc2ccccc2n1", 0.166],
  ["O=C1OCC=C[C@H]2OC34C=CCN(Cc5ccccc5)C(=O)[C@H]3N(CCCCCCO)C(=O)[C@@H]4[C@@H]12 (some centres undefined)", -0.238],
  ["COC(=O)c1c2oc(c1C(=O)OC)C(=O)N(C)Cc1cn(nn1)C[C@H](Cc1ccccc1)NC(=O)N[C@H](CO)CC2", -0.0576],
  ["COC(=O)c1c2oc(c1C(=O)OC)C(=O)N(Cc1ccccc1)Cc1cn(nn1)C[C@H](Cc1ccccc1)NC(=O)N[C@H](CO)CC2", -0.154]
]}

These measurements were taken from PubChem BioAssay.
